biological target: hNurr1_RXRγFL (NURR1/RXRγ heterodimer) (Homo sapiens, UniProt P43354+P48443); test: Transactivation assay in Cos-7 cells, NURR-1-Gal4 / RXRγ, luciferase reporter; type: cell-based; conditions: COS-7, read-out: hNurr1_RXRγFL Eff (%), efficacy in % relative to the reference XCT0135908 at 2·10^−5 M (=100%)
Sequence (P43354 328-598): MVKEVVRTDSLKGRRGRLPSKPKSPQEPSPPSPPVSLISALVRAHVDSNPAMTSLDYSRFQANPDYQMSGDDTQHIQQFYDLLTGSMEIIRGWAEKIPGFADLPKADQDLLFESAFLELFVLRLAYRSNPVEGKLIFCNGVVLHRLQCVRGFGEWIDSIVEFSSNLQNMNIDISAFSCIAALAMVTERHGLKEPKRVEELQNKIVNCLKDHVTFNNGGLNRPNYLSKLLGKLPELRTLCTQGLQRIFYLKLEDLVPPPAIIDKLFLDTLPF
Sequence (P48443 whole entry, the tested form may be a part): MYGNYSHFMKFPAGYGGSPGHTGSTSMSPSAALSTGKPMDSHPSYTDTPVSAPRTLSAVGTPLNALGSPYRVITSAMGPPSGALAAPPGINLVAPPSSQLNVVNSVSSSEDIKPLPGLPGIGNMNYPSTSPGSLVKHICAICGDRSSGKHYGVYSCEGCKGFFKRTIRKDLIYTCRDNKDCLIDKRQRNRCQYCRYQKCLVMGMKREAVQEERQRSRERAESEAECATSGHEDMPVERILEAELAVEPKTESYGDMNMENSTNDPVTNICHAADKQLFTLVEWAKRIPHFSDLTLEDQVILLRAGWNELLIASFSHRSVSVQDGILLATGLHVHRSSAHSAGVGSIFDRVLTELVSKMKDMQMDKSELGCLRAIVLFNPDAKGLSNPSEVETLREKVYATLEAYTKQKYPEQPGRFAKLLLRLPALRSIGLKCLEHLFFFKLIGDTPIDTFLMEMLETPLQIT
MEASURED_QUANTITY: Emax (%)
// return numeric value only (unit: %, not printed)

MOL | OBSERVED
CC(C)(C)c1cccc(S(=O)(=O)n2c(Cc3cncc(C(=O)O)c3)cc3cc(C(F)(F)F)ccc32)c1 | 93
CC(C)(C)c1cccc(S(=O)(=O)n2c(Cc3ccc(-c4noc(=O)[nH]4)cc3)cc3cc(C(F)(F)F)ccc32)c1 | 55
Cc1cc(C)n(-c2ccc(S(=O)(=O)n3c(Cc4ccc(C(=O)O)cc4)cc4cc(C(F)(F)F)ccc43)cc2)n1 | 21
CC(C)(C)c1cccc(S(=O)(=O)n2c(Cc3ccc(C(=O)O)cn3)cc3cc(C(F)(F)F)ccc32)c1 | 79
CC(C)(C)c1cccc(S(=O)(=O)n2c(Cc3cccc(C(=O)O)c3)cc3cc(C(F)(F)F)ccc32)c1 | 74

For CC(C)c1ccc(S(=O)(=O)n2c(Cc3ccc(C(=O)O)c(O)c3)cc3cc(Cl)ccc32)cc1 the compound record lists Emax as 42

For COC(=O)c1ccc(Cc2cc3cc(Cl)ccc3n2S(=O)(=O)c2ccc(C(C)C)cc2)cc1 the compound record lists Emax as 75
